Source: PubChem BioAssay (NCI)

# Tested on: OVCAR-5 ovarian
# experiment description: NCI tumour cell line growth inhibition, 48 h
Reported TGI values are given for each entry in this list.
attribute measured: TGI

[
  {
    "compound": "COC(=O)/C=C/C1C2C3(CCC(C)C12C)OCCS3 (centres undefined)",
    "measurement target": "OVCAR-5 ovarian",
    "reported": "> 100 µM"
  },
  {
    "compound": "CC/C=C/C[C@H](O[Si](C)(C)C(C)(C)C)[C@H]1C[C@H]2O[C@H]([C@@H](O)C#C[Si](C)(C)C)C[C@H]2O1",
    "measurement target": "OVCAR-5 ovarian",
    "reported": "27.3 µM"
  },
  {
    "compound": "COc1cc(-c2ccc(-c3ccc(C(=N)N)cc3)s2)cc(OC)c1OC",
    "measurement target": "OVCAR-5 ovarian",
    "reported": "13.8 µM"
  },
  {
    "compound": "O=C(/C=C/NC(=O)OCc1ccccc1)OCc1ccccc1",
    "measurement target": "OVCAR-5 ovarian",
    "reported": "> 100 µM"
  },
  {
    "compound": "COc1ccc(O)c(/C=N/NC(=S)N2CCCCC2)c1",
    "measurement target": "OVCAR-5 ovarian",
    "reported": "> 100 µM"
  },
  {
    "compound": "CC(C)NCCCC(C)Nc1ccnc2ccc3nn(C)nc3c12 (centres undefined)",
    "measurement target": "OVCAR-5 ovarian",
    "reported": "> 100 µM"
  },
  {
    "compound": "COc1cc2c(cc1OCCCCCn1c(-c3ccc(OCc4ccccc4)cc3)nc3cc(N4CCOCC4)ccc31)N=C[C@@H]1CCCN1C2=O",
    "measurement target": "OVCAR-5 ovarian",
    "reported": "> 28.9 µM"
  },
  {
    "compound": "Cn1ncc(NC(=O)c2nc(-c3c(F)cccc3F)sc2N)c1N1CC[C@@H](N)[C@H](F)CC1",
    "measurement target": "OVCAR-5 ovarian",
    "reported": "54.6 µM"
  },
  {
    "compound": "CCOC(=O)C1CCCCN1C(=O)OCc1ccccc1 (centres undefined)",
    "measurement target": "OVCAR-5 ovarian",
    "reported": "> 100 µM"
  },
  {
    "compound": "COc1cc(/C=N/n2c(-c3ccccc3)n[nH]c2=O)cc(OC)c1OC",
    "measurement target": "OVCAR-5 ovarian",
    "reported": "> 100 µM"
  },
  {
    "compound": "O=C1Nc2cc(Cl)ccc2C(=O)N2CCC[C@@H]12",
    "measurement target": "OVCAR-5 ovarian",
    "reported": "> 100 µM"
  },
  {
    "compound": "CNCCCCN(C)/[N+]([O-])=N\\O",
    "measurement target": "OVCAR-5 ovarian",
    "reported": "> 100 µM"
  },
  {
    "compound": "CCn1cc(C(=O)O)c(=O)c2cc(F)c(N3CCN(CN4C(=O)/C(=N\\c5ncc(Cc6cc(OC)c(OC)c(OC)c6)c(N)n5)c5cc(Cl)ccc54)CC3)cc21",
    "measurement target": "OVCAR-5 ovarian",
    "reported": "> 100 µM"
  },
  {
    "compound": "CCOC(=O)C1C(=O)C=C(c2cc(C)ccc2O)CC1c1cccc(Cl)c1 (centres undefined)",
    "measurement target": "OVCAR-5 ovarian",
    "reported": "> 100 µM"
  },
  {
    "compound": "CCC(=O)c1cc(C(=O)C(=S)SC)cc(C(=O)C(=S)SC)c1",
    "measurement target": "OVCAR-5 ovarian",
    "reported": "> 100 µM"
  },
  {
    "compound": "Cc1c2c(cc3c1[nH]c1ccccc13)C(c1ccc(Cl)cc1)=NCC2",
    "measurement target": "OVCAR-5 ovarian",
    "reported": "33.7 µM"
  },
  {
    "compound": "Nc1nc(-c2ccco2)cc(-c2ccco2)n1",
    "measurement target": "OVCAR-5 ovarian",
    "reported": "> 100 µM"
  },
  {
    "compound": "CN(C)c1cc[n+](/C(NS(=O)(=O)c2cc(C(=O)Nc3ccc(Cl)cc3)c(Cl)cc2[S-])=C(\\C#N)C(=O)c2ccccc2)cc1",
    "measurement target": "OVCAR-5 ovarian",
    "reported": "53 µM"
  },
  {
    "compound": "O=c1c(Cc2c(O)ccc3ccccc23)nnc2sc(-c3nn4c(=O)c(Cc5c(O)ccc6ccccc56)nnc4s3)nn12",
    "measurement target": "OVCAR-5 ovarian",
    "reported": "> 100 µM"
  },
  {
    "compound": "CC(=O)NS(=O)(=O)c1ccc(-n2nc(-c3ccc(Cl)cc3)cc2-c2cc(O)ccc2O)cc1",
    "measurement target": "OVCAR-5 ovarian",
    "reported": "40 µM"
  },
  {
    "compound": "COC1OC(COC(C)=O)C(OC(C)=O)C(OC(C)=O)C1NC(=O)N(CCCl)N=O (centres undefined)",
    "measurement target": "OVCAR-5 ovarian",
    "reported": "> 100 µM"
  },
  {
    "compound": "c1ccc([P+](c2ccccc2)(c2ccccc2)c2ccc3c4ccc([P+](c5ccccc5)(c5ccccc5)c5ccccc5)c5cccc(c6cccc2c63)c54)cc1",
    "measurement target": "OVCAR-5 ovarian",
    "reported": "> 100 µM"
  },
  {
    "compound": "COc1ccc(-c2cc(-c3ccccc3)nc(SCCCC(=O)NO)n2)cc1OC",
    "measurement target": "OVCAR-5 ovarian",
    "reported": "5.43 µM"
  },
  {
    "compound": "Cc1nn(C(=O)c2ccccc2O)c2c1C(c1ccc3ccccc3c1O)SC(N)=N2 (centres undefined)",
    "measurement target": "OVCAR-5 ovarian",
    "reported": "> 10 µM"
  },
  {
    "compound": "COc1cccc(/C=N/[N-]C(=O)c2ccncc2)c1[O-].[Ni+2].[OH3+]",
    "measurement target": "OVCAR-5 ovarian",
    "reported": "> 100 µM"
  },
  {
    "compound": "OC1c2ccccc2CCC1C(O)(C(F)(F)F)C(F)(F)F (centres undefined)",
    "measurement target": "OVCAR-5 ovarian",
    "reported": "> 100 µM"
  },
  {
    "compound": "O=C(COc1nc2ccccc2nc1-c1ccccc1)Nc1ccc(Cl)cc1",
    "measurement target": "OVCAR-5 ovarian",
    "reported": "> 100 µM"
  },
  {
    "compound": "Cc1cc2c(s1)C(N)CC2=O (centres undefined)",
    "measurement target": "OVCAR-5 ovarian",
    "reported": "> 100 µM"
  },
  {
    "compound": "CNC(=O)NCC1OC(n2cnc3c(NC(=O)Nc4ccccc4)ncnc32)C(O[Si](C)(C)C(C)(C)C)C1CC(=O)N(C)OC (centres undefined)",
    "measurement target": "OVCAR-5 ovarian",
    "reported": "> 100 µM"
  },
  {
    "compound": "COC(=O)CN(CC1O[C@@H]2OC(C)(C)O[C@@H]2C1N=[N+]=[N-])C(=O)OCc1ccccc1 (some centres undefined)",
    "measurement target": "OVCAR-5 ovarian",
    "reported": "> 100 µM"
  },
  {
    "compound": "C=C1C(=O)O[C@H]2[C@H]1CC/C(COC(=O)/C=C/C(=O)NCc1ccc(Cn3c(=O)sn(-c4ccccc4)c3=O)cc1)=C\\CC[C@@]1(C)O[C@@H]21",
    "measurement target": "OVCAR-5 ovarian",
    "reported": "5.8 µM"
  },
  {
    "compound": "CCOC(=O)c1csc(NC(=O)CN(C)C)n1",
    "measurement target": "OVCAR-5 ovarian",
    "reported": "> 100 µM"
  },
  {
    "compound": "O=C(/C=C/c1ccc(Cl)cc1)c1ccc(Nc2nc(Nc3ccc(F)cc3)nc(Nc3ccc(F)cc3)n2)cc1",
    "measurement target": "OVCAR-5 ovarian",
    "reported": "> 100 µM"
  },
  {
    "compound": "Cc1ccc(O)c(-c2cc(-c3cccc(Br)c3)on2)c1",
    "measurement target": "OVCAR-5 ovarian",
    "reported": "> 100 µM"
  },
  {
    "compound": "O=[N+]([O-])c1ccc2c(c1)Sc1ccccc1N2",
    "measurement target": "OVCAR-5 ovarian",
    "reported": "> 100 µM"
  },
  {
    "compound": "O=CN(CCN1CCCC1)C1CCc2cc(Cl)c(Cl)cc2C1 (centres undefined)",
    "measurement target": "OVCAR-5 ovarian",
    "reported": "40.7 µM"
  },
  {
    "compound": "COc1cc(/C=C/c2cc(/C=C/c3ccc(O)c(OC)c3)n(-c3c(Cl)cccc3Cl)c(=O)n2)ccc1O",
    "measurement target": "OVCAR-5 ovarian",
    "reported": "11 µM"
  },
  {
    "compound": "CN(C)CCNc1ccc2nnn3c4ccccc4c(=O)c1c23",
    "measurement target": "OVCAR-5 ovarian",
    "reported": "11.4 µM"
  },
  {
    "compound": "O=c1cc(-c2ccccc2)c2ccc(O)c(CN(CCCl)CCCl)c2o1",
    "measurement target": "OVCAR-5 ovarian",
    "reported": "34.1 µM"
  }
]
